Target: αIIbβ3-expressing HEK293 cells (Homo sapiens, UniProt P05106+P08514)
Sequence (P08514 32-887 limits assumed): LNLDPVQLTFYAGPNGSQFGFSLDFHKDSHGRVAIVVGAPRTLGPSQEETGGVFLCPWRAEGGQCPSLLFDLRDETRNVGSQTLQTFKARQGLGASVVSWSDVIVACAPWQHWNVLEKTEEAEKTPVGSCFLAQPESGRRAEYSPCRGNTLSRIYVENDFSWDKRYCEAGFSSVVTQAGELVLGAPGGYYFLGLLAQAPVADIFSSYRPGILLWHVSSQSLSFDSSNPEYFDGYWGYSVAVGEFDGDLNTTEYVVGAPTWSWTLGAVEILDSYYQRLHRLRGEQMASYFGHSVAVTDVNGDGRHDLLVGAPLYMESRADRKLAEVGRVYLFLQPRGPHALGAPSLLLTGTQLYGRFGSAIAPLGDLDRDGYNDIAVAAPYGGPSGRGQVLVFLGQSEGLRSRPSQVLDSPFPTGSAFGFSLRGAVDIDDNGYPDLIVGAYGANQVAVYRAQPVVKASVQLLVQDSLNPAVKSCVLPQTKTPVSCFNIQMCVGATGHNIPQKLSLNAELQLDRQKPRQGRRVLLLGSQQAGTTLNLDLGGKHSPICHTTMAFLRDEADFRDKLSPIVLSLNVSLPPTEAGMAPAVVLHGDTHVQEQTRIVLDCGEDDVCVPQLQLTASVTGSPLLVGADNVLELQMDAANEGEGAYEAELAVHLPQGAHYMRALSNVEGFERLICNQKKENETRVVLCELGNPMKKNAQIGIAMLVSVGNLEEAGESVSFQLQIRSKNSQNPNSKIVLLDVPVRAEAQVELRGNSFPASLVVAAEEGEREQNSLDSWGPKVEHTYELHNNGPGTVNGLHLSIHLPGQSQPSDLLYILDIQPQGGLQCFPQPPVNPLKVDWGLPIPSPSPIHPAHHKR
Sequence (P08514 891-1039 partner limits assumed): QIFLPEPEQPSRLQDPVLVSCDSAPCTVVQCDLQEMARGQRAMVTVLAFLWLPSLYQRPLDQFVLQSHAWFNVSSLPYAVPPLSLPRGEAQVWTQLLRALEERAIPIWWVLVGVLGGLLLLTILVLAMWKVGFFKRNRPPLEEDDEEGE
Sequence (P05106 27-788): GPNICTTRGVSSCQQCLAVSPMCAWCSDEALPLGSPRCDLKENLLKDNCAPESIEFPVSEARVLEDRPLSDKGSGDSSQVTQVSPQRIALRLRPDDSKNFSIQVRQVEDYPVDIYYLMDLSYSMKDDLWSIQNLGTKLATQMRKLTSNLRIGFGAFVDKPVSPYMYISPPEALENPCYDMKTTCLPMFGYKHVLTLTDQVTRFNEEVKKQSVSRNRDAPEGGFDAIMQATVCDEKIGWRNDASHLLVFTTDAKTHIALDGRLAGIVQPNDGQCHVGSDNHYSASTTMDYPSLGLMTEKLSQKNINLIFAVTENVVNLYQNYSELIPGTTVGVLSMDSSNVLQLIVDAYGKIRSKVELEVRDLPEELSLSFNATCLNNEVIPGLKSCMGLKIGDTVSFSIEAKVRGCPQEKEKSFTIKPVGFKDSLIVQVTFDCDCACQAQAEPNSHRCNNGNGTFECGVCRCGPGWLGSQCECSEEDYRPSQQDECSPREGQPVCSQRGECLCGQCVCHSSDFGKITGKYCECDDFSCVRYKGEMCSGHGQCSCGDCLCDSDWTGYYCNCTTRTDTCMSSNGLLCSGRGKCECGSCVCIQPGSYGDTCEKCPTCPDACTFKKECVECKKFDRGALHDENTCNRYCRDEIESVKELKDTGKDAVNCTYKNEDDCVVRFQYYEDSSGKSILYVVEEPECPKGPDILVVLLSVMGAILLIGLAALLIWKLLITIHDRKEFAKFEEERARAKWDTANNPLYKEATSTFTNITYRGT
Assay: Fluorescent fibrinogen binding to HEK293 cells
Settings: AP5 60 μg/ml; n=3; read-out: IC50, AP5-induced fibrinogen binding to HEK293 cells
reported_endpoint: IC50 (µM)
Give bare numbers, in µM.

Challenge: State its IC50 on αIIbβ3-expressing HEK293 cells (Homo sapiens, UniProt P05106+P08514): `CCc1nn2c(=O)cc(N3CCNCC3)nc2s1`
Response given: 21
